Biological target: human TLR7 (Homo sapiens)
Sequence (Q9NYK1 27-1049): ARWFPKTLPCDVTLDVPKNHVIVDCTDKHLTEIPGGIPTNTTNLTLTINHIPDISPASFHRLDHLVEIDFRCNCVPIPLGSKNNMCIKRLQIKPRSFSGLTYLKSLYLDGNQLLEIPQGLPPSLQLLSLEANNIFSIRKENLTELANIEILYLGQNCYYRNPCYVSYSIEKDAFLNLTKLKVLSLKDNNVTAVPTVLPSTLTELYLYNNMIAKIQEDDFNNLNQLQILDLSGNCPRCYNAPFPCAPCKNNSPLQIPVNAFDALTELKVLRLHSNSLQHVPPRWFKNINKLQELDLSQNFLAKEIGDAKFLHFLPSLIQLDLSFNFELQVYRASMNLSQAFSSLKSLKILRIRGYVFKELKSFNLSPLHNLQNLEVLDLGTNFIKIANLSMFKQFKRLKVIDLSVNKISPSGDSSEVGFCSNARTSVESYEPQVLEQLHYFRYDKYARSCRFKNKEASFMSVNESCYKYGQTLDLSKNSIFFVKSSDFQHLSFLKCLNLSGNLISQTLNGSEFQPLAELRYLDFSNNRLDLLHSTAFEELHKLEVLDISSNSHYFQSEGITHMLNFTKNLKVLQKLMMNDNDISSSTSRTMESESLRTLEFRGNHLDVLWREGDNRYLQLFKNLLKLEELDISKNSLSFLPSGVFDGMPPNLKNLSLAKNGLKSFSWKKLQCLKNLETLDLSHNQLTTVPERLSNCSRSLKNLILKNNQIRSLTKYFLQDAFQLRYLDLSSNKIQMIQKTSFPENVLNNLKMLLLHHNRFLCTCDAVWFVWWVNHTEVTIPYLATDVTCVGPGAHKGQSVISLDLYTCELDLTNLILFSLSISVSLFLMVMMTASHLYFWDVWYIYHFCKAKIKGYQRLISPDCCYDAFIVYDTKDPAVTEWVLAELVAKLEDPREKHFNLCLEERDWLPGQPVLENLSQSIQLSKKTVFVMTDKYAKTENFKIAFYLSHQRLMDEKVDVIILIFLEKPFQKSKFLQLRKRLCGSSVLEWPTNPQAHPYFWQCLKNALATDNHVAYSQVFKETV
Assay: TLR7 inhibition reporter assay (HEK-Blue cells, SEAP reporter, gardiquimod stimulation)
Details: HEK-Blue cells overexpressing human TLR7, SEAP reporter, gardiquimod 7.5 μM
pIC50: −log10 of the molar value.
MEASURE: pIC50

MOLECULE: Cc1cc(-c2[nH]nc(C(=O)N[C@H]3CC[C@@H](N(C)C)CC3)c2C(C)C)cn2ncnc12
pIC50: 9.05

(I) Cc1cc(-c2[nH]nc(-c3ncc(C4CCN(C)CC4)cn3)c2C(C)C)cn2ncnc12
(II) Cc1cc(-c2[nH]nc(C(=O)NC3CCC(O)CC3)c2C(C)C)cn2ncnc12 (stereo not shown)
[in] Which entry shows the lesser value of pIC50 here, I or II ? Choose, then provide that item's label.
[out] I
(I: 7.98, II: 8.47)

(a) Cc1cc(-c2[nH]nc(C(=O)NC3CCCNC3)c2C(C)C)cn2ncnc12 (stereo not shown) [Example 67]
(b) Cc1cc(-c2[nH]nc(-c3ccc4c(c3)CCN(CC(C)(C)O)C4)c2C(C)C)cn2ncnc12
[in] Which entry shows the lesser value of pIC50 here, a or b ? Choose, then provide that item's label.
[out] b

(1) Cc1cc(-c2[nH]nc(C(=O)N3CCC(CN)CC3)c2C(C)C)cn2ncnc12
(2) COc1cc(-c2[nH]nc(-c3ccc(C4CCN(C(C)C)CC4)cn3)c2C(C)C)cn2ncnc12
[in] Which entry shows the lesser value of pIC50 here, 1 or 2 ? Choose, then provide that item's label.
[out] 1
(1: 7.64, 2: 8.09)

* * *

Molecular target: human TLR9 (Homo sapiens, UniProt Q9NR96)
Sequence (Q9NR96 26-1032): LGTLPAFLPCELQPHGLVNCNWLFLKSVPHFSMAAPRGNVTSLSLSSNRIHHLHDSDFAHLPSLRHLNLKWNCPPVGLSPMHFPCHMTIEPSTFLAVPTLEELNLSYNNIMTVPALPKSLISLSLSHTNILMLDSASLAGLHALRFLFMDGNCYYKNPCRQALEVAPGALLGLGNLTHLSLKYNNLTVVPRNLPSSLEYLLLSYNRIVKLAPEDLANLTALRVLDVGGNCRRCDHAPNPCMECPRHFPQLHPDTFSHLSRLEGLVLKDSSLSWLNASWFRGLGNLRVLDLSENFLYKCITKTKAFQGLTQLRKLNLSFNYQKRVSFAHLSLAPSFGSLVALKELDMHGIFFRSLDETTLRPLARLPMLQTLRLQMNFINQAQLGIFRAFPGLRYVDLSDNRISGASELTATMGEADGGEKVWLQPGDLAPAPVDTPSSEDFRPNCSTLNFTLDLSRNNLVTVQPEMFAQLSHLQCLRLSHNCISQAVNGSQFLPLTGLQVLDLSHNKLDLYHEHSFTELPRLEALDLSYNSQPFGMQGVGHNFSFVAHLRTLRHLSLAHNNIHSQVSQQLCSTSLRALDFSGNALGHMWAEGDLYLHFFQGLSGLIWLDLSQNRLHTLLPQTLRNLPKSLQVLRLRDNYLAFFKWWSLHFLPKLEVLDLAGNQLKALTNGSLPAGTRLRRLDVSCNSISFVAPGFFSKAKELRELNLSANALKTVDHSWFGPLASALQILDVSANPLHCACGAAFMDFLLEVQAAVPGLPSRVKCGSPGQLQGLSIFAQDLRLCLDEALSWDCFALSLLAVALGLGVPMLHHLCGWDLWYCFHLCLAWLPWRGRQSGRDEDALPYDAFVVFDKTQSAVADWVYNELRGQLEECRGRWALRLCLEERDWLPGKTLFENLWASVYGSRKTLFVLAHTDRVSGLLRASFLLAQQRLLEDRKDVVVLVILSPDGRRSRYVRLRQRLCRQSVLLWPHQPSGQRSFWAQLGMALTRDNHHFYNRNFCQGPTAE
Test: TLR9 inhibition reporter assay (HEK-Blue cells, SEAP reporter, ODN2006 stimulation)
Conditions: HEK-Blue cells overexpressing human TLR9, SEAP reporter, ODN2006 5 nM
pIC50: −log10 of the molar value.
MEASURE: pIC50

STRUCTURE: COc1cc(-c2[nH]nc(-c3ccc(C4CN(CC(C)(C)O)C4)cc3)c2C(C)C)cn2ncnc12
TARGET UNDER TEST: human TLR9 (Homo sapiens, UniProt Q9NR96)
pIC50: 4.37

STRUCTURE: Cc1cc(-c2[nH]nc(-c3cnc4c(c3)CNCC4)c2C(C)C)cn2ncnc12
TARGET UNDER TEST: human TLR9 (Homo sapiens, UniProt Q9NR96)
pIC50: 4.36

STRUCTURE: Cc1cc(-c2[nH]nc(C(=O)N[C@H]3CC[C@@H](NCC4CCCC4)CC3)c2C(C)C)cn2ncnc12
TARGET UNDER TEST: human TLR9 (Homo sapiens, UniProt Q9NR96)
pIC50: 4.39

STRUCTURE: Cc1cc(-c2[nH]nc(C(=O)N[C@H]3CC[C@@H](NCc4cccnc4)CC3)c2C(C)C)cn2ncnc12
TARGET UNDER TEST: human TLR9 (Homo sapiens, UniProt Q9NR96)
pIC50: 4.36

Values compiled from patent US20230117470A1.
